structure.smiles.string	melting point
NNC(=O)c1ccc(NS(=O)(=O)c2cccs2)cc1	178 to 180 °C
CCc1cccc2c(CCN)c[nH]c12	91 to 93 °C
O=C(c1cccc(F)c1)c1ccccn1	37 to 39 °C

---

Listing of entries alongside the reported melting point.
assay.metric: melting point

molecule	data.value
CCC(C)(C#N)NC(=O)c1ccccc1 (stereo not drawn)	138 to 140 °C
NC(=NO)c1ccccc1CN1CCCCC1	114 to 116 °C
O=Cc1cnc(N2CCCC2)nc1	118 to 120 °C
Cc1ccc(C(=O)O)cc1NC(=O)c1ccc(Br)cc1	309 to 311 °C
O=C(NO)c1ccc(Br)s1	152 to 160 °C
Cc1ccc2ncc(C#N)n2c1	126 to 128 °C
CN(CC(=O)O)C(=O)c1ccc(Br)o1	110 to 112 °C
CN1CC(=O)N(CCCC(=O)O)C1=O	79 to 81 °C
Cc1nnc(-c2ccc(C(=O)O)cc2)[nH]1	272 to 274 °C
Oc1ccc2c(c1)CNCC2	194 to 196 °C
CN(CCS(=O)(=O)F)S(=O)(=O)c1ccc(F)cc1	129 to 131 °C
CCN1CCN(S(=O)(=O)c2ccc(CCC(=O)O)cc2)CC1	239 to 241 °C
CCN(CC)S(=O)(=O)c1ccc(Oc2cccc(C)c2)c(N)c1	122 to 124 °C
Cc1ccc2nc(CCl)cc(=O)n2c1	136 to 138 °C
NC(=S)NCCc1ccccn1	94 to 98 °C
Cc1cc(C)c2c(C)nn(-c3ccc(N)cc3)c2n1	104 to 106 °C
Nn1c(S)nnc1C1CCCCO1 (stereo not drawn)	162 to 164 °C
O=S(=O)(Cl)c1cnc(Cl)nc1Cl	96 to 98 °C
CCNc1ccc(S(=O)(=O)C(F)(F)F)cc1	63 to 65 °C
Cc1cc(C)n(-c2ccc(C(F)(F)F)cc2N)n1	85 to 87 °C
NC(=O)C(Cl)c1cccc(Br)c1 (stereo not drawn)	109 to 111 °C
CCCOc1ccc(C(=O)NN)cc1	88 to 90 °C
CN1C(=O)CC(C(=O)O)C1c1ccccc1 (stereo not drawn)	126 to 128 °C

---

Listing of entries alongside the reported melting point.
assay.metric: melting point

compound	assay.metric	data.value
CC(C)(C)OC(=O)NC1CCC(=O)CC1	melting point	113 to 115 °C
O=C1CC2(CCSC2)C(=O)N1 (stereo not drawn)	melting point	135 to 137 °C
Nc1ccc(S(=O)(=O)NC2CC2)cn1	melting point	169 to 171 °C

---

compound	melting point
NCc1cccc(CS(N)(=O)=O)c1	142 to 144 °C
Nc1ccc(-c2ncno2)cc1	99 to 101 °C
O=C(O)c1csc(-c2cnn(-c3ccccc3)c2)n1	202 to 204 °C
CC1CCC(C(C)C)C(OC(=O)CCl)C1 (stereo not given)	65 to 66 °C
CCCNc1nnc(S)s1	105 to 107 °C
CN(C)C(=O)Sc1ccc(CCl)cc1	78 to 80 °C
O=C(O)C1=Nc2cccc3cccc(c23)N1	210 to 212 °C
O=C(O)c1ccc(Nc2ccc(F)c(F)c2)c([N+](=O)[O-])c1	237 to 239 °C
Cc1cc(C(=O)CCl)c(C)s1	53 to 57 °C
COC(=O)c1n[nH]c(=O)c2noc(C3CC3)c12	234 to 236 °C
O=S1(=O)CCNC2CCCCC21 (stereo not given)	75 to 77 °C
CC(=O)c1ccc(N(C)C)cc1	105 to 107 °C
Nc1cccnc1C(=O)O	218 to 220 °C
CC(C)(C#N)C(=O)O	54 to 56 °C
CN(CC(N)=S)C(=O)c1ccccc1	149 to 151 °C
Nc1nc2cc(F)c(F)cc2[nH]1	144 to 146 °C
O=C(O)c1ccc2c(c1)NC(=O)C1CCCN21 (stereo not given)	250 to 252 °C
O=C(O)/C=C/c1nc2ccccc2o1	223 to 225 °C
O=S(=O)(Nc1nc2ccccc2nc1Cl)c1ccccc1C(F)(F)F	157 to 159 °C
N#Cc1oc2ccccc2c1O	138 to 140 °C
Cc1cc(C)c(C(=O)O)c(Cl)n1	78 to 82 °C
Nc1cc(S(=O)(=O)Nc2ccccc2Cl)ccc1Cl	89 to 93 °C
O=C1CCCC(N2C(=O)c3ccccc3C2=O)C1 (stereo not given)	147 to 149 °C
Nc1cccc(S(=O)(=O)C2CCCC2)c1	117 to 119 °C
O=C(O)CC(Br)C(=O)c1ccc(Br)cc1 (stereo not given)	109 to 111 °C
Nc1cc([N+](=O)[O-])ccc1Nc1ccc(F)cc1	162 to 164 °C
NS(=O)(=O)c1scnc1C(=O)O	205 to 207 °C
NNc1ccc(C(F)(F)F)cn1	61 to 63 °C
NNc1ccc(S(=O)(=O)NCc2ccco2)cn1	144 to 146 °C
Cc1ccccc1CCNC(=O)C(C)Cl (stereo not given)	59 to 61 °C
COc1ccccc1N(CCC#N)C(=O)C(C)Cl (stereo not given)	71 to 73 °C
O=C1CCSc2ccc(Br)cc21	49 to 51 °C
CCOc1ccc(NC(=O)c2ccc(NC(=O)CCl)cc2)cc1	253 to 255 °C
NCc1cccc(NC(=O)c2ccccn2)c1	74 to 76 °C
O=c1[nH]c(=O)n(Cc2ccccc2)c2ncn(C3CCCC3)c12	252 to 254 °C
Nc1ccc2nc(CN3CCOCC3)[nH]c2c1	160 to 162 °C
COc1cc(CCC(=O)O)ccc1Cl	132 to 134 °C
O=Cc1cc(Br)ccc1OCc1ccccc1	61 to 63 °C
CC(=O)NCc1ccc(Br)cc1	114 to 116 °C
Nc1nc2ccc(Br)cc2s1	119 to 121 °C
O=C(O)CCc1nnc(-c2ccc(Cl)cc2)o1	159 to 161 °C
NC(=O)Cn1ccc([N+](=O)[O-])n1	159 to 161 °C
COc1cccc2[nH]cc(CC#N)c12	133 to 135 °C
Cc1nn(C)c2c1N(C(=O)OC(C)(C)C)CC(C)N2 (stereo not given)	129 to 131 °C
N#Cc1ccc(CSCC(=O)O)cc1	86 to 88 °C

Measured values drawn from a melting point compilation (Tetko et al.) for this set.
